- assay target: Xenopus laevis Aurora B/INCENP complex (Xenopus laevis)
- Construct: equipped at the N-terminal position with a GST tag (amino acids 60-361); GST (N, cleaved yes); made in house; host or cells: E. coli BL21 (DE3)
- assay comment: Aurora-B kinase assay (radioactive enzyme inhibition assay)
- Format: biochemical
- measurement context: test substance at 1 μM; percentage of the positive control (maximum value without test substance)
Class field: derived from remaining activity at 1 µM; ranges bucket A: < 2%; bucket B: ≥ 2% and < 10%; bucket C: ≥ 10%

compound="CN(C)Cc1ccc(N/C(=C2\\C(=O)Nc3cc(-c4cnc(NC5CCC5)nc4)ccc32)c2ccccc2)cc1 [Example 45]" discrete_label="bucket A"
compound="CN(C)Cc1ccc(N/C(=C2\\C(=O)Nc3cc(-c4cnc(NCC5CC5)cn4)ccc32)c2ccccc2)cc1 [Example 2]" discrete_label="bucket C"
compound="CN(C)Cc1ccc(N/C(=C2\\C(=O)Nc3cc(-c4ccc(C(N)=O)cc4)ccc32)c2ccccc2)cc1 [Example 43]" discrete_label="bucket C"
compound="CC(C)Nc1ccc(-c2ccc3c(c2)NC(=O)/C3=C(\\Nc2ccc(C(=O)N3CCN[C@@H](C)C3)cc2)c2ccccc2)cn1 [Example 133]" discrete_label="bucket A"
compound="CN(C)Cc1ccc(N/C(=C2\\C(=O)Nc3cc(C#CC(=O)NCC(F)F)ccc32)c2ccccc2)cc1 [Example 167]" discrete_label="bucket B"
compound="CC(C)Nc1ccc(-c2ccc3c(c2)NC(=O)/C3=C(\\Nc2ccc(C(=O)N3CCN(C)CC3)cc2)c2ccccc2)cn1 [Example 135]" discrete_label="bucket A"
compound="COc1cc(N/C(=C2\\C(=O)Nc3cc(-c4ccc(NC(C)C)nc4)ccc32)c2ccccc2)ccc1C(=O)N1CC[C@H](N(C)C)C1 [Example 110]" discrete_label="bucket A"
compound="CC(C)Nc1ccc(-c2ccc3c(c2)NC(=O)/C3=C(\\Nc2ccc(C(=O)N3CCN(CC4CC4)CC3)cc2)c2ccccc2)cn1 [Example 118]" discrete_label="bucket B"
compound="CN(C)Cc1ccc(N/C(=C2\\C(=O)Nc3cc(-c4ccccc4NS(C)(=O)=O)ccc32)c2ccccc2)cc1 [Example 23]" discrete_label="bucket C"
compound="COc1cc(N/C(=C2\\C(=O)Nc3cc(-c4ccc(NC(C)C)nc4)ccc32)c2ccccc2)ccc1C(=O)N1C[C@H]2C[C@@H]1CN2C [Example 108]" discrete_label="bucket A"
compound="COc1cncc(-c2ccc3c(c2)NC(=O)/C3=C(\\Nc2ccc(CN(C)C)cc2)c2ccccc2)c1 [Example 63]" discrete_label="bucket C"
compound="C[C@H](CO)NC(=O)C#Cc1ccc2c(c1)NC(=O)/C2=C(\\Nc1ccc(CN(C)C)cc1)c1ccccc1 [Example 171]" discrete_label="bucket B"
compound="CN(C)Cc1ccc(N/C(=C2\\C(=O)Nc3cc(-c4cnc(N5CCCC5)nc4)ccc32)c2ccccc2)cc1 [Example 10]" discrete_label="bucket C"
compound="CCNc1cnc(-c2ccc3c(c2)NC(=O)/C3=C(\\Nc2ccc(CN(C)C)cc2)c2ccccc2)cn1 [Example 1]" discrete_label="bucket C"

###

- assay target: Xenopus laevis Aurora B/INCENP complex (Xenopus laevis)
- Construct: equipped at the N-terminal position with a GST tag (amino acids 60-361); GST (N, cleaved yes); made in house; host or cells: E. coli BL21 (DE3)
- assay comment: Aurora-B kinase assay (radioactive enzyme inhibition assay)
- Assay type: biochemical
- measurement context: test substance at 1 μM; percentage of the positive control (maximum value without test substance)
// assign criterion met if remaining activity at 1 µM falls strictly below 9%, else criterion not met (ties count as criterion not met)

compound="C[C@H](CO)NC(=O)C#Cc1ccc2c(c1)NC(=O)/C2=C(\\Nc1ccc(CN2CCCC2)cc1)c1ccccc1 [Example 172]" discrete_label="criterion met"
compound="CN(C)Cc1ccc(N/C(=C2\\C(=O)Nc3cc(C#CC(=O)NC4CCCC4)ccc32)c2ccccc2)cc1 [Example 163]" discrete_label="criterion met"
compound="CCN1CCN(C(=O)c2ccc(N/C(=C3\\C(=O)Nc4cc(-c5ccc(NC(C)C)nc5)ccc43)c3ccccc3)cc2)CC1 [Example 113]" discrete_label="criterion met"
compound="CC(C)Nc1ccc(-c2ccc3c(c2)NC(=O)/C3=C(\\Nc2ccc(C(=O)NCCN(C)C)cc2)c2ccccc2)cn1 [Example 134]" discrete_label="criterion met"
compound="CC(C)Nc1ncc(-c2ccc3c(c2)NC(=O)/C3=C(\\NC2CCN(C)CC2)c2ccccc2)cn1 [Example 79]" discrete_label="criterion not met"
compound="CN(C)Cc1ccc(N/C(=C2\\C(=O)Nc3cc(-c4cccc(-n5cccn5)c4)ccc32)c2ccccc2)cc1 [Example 64]" discrete_label="criterion not met"

###

- assay target: Xenopus laevis Aurora B/INCENP complex (Xenopus laevis)
- Construct: equipped at the N-terminal position with a GST tag (amino acids 60-361); GST (N, cleaved yes); made in house; host or cells: E. coli BL21 (DE3)
- assay comment: Aurora-B kinase assay (radioactive enzyme inhibition assay)
- Type: biochemical
- measurement context: test substance at 1 μM; percentage of the positive control (maximum value without test substance)
- Source text: Example Aurora-B Kinase Assay A radioactive enzyme inhibition assay was developed using E. coli-expressed recombinant Xenopus laevis Aurora B wild-type protein equipped at the N-terminal position with a GST tag (amino acids 60-361) in a complex with Xenopus laevis INCENP (amino acids 790-847), which is obtained from bacteria and purified. In equivalent manner a Xenopus laevis Aurora B mutant (G96V) in a complex with Xenopus laevis INCENP^790-847 may also be used. Expression and Purification […]
Consider the following compounds and their measured remaining activity at 1 µM readings.
quantity kind: remaining activity at 1 µM (%)

chemical_smiles=CC(C)Nc1ncc(-c2cc3c(cc2F)/C(=C(/Nc2ccc(CN(C)C)cc2)c2ccccc2)C(=O)N3)cn1 result_value=5.59
chemical_smiles=CN(C)Cc1ccc(N/C(=C2\C(=O)Nc3cc(-c4ccc(N(C)C)nc4)ccc32)c2ccccc2)cc1 result_value=11.4
chemical_smiles=CC(C)Nc1ccc(-c2ccc3c(c2)NC(=O)/C3=C(\Nc2ccc(C(=O)N3CCN(CC(F)(F)F)CC3)cc2)c2ccccc2)cn1 result_value=8.83
chemical_smiles=CN(C)Cc1ccc(N/C(=C2\C(=O)Nc3cc(C#CC(=O)Nc4ccccc4)ccc32)c2ccccc2)cc1 result_value=1.69
chemical_smiles=CNCC#Cc1cc2c(cc1S(=O)(=O)c1ccc(F)cc1)/C(=C(/Nc1ccccc1)c1ccccc1)C(=O)N2 result_value=1.98
chemical_smiles=O=C(C#Cc1ccc2c(c1)NC(=O)/C2=C(\Nc1ccc(CN2CCCC2)cc1)c1ccccc1)NCC(F)F result_value=1.85
chemical_smiles=CC(C)Nc1ccc(-c2ccc3c(c2)NC(=O)/C3=C(\Nc2ccc(C(=O)N3CCC(N(C)C)CC3)cc2)c2ccccc2)cn1 result_value=4.34

###

Consider the following compounds and their measured remaining activity at 1 µM readings.
- assay target: Xenopus laevis Aurora B/INCENP complex (Xenopus laevis, UniProt Q6DE08)
- Construct: equipped at the N-terminal position with a GST tag (amino acids 60-361); GST (N, cleaved yes); made in house; host or cells: E. coli BL21 (DE3)
- Sequence (Q6DE08 60-361): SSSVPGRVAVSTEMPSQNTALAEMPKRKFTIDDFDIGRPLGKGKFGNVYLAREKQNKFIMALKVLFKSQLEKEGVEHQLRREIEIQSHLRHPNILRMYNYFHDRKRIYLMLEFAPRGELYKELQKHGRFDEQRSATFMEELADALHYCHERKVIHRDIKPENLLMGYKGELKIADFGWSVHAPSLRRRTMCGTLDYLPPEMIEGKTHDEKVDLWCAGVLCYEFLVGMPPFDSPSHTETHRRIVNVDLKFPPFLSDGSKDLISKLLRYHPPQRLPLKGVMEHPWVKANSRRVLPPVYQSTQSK
- Sequence (O13024 790-847 partner limits assumed): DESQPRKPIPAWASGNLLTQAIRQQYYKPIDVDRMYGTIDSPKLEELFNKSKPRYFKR
- assay comment: Aurora-B kinase assay (radioactive enzyme inhibition assay)
- Assay type: biochemical
- measurement context: test substance at 1 μM; percentage of the positive control (maximum value without test substance)
quantity kind: remaining activity at 1 µM

compound="CN(C)Cc1ccc(N/C(=C2\\C(=O)Nc3cc(-c4ccc(NC5CCC5)nc4)ccc32)c2ccccc2)cc1 [Example 56]" quantity_kind="remaining activity at 1 µM" result_value=5.45%
compound="CC(C)Nc1ccc(-c2ccc3c(c2)NC(=O)/C3=C(\\Nc2ccc(C(=O)N(C)C3CCN(C)CC3)cc2)c2ccccc2)cn1 [Example 139]" quantity_kind="remaining activity at 1 µM" result_value=0.88%
compound="CC(C)Nc1ncc(-c2ccc3c(c2)NC(=O)/C3=C(\\Nc2ccc(CN(C)C)cc2)c2ccccc2)cn1 [Example 46]" quantity_kind="remaining activity at 1 µM" result_value=2.13%
compound="CN1CCN(c2ccc(N/C(=C3\\C(=O)Nc4cc(C#CC(=O)NC5CCC5)c(S(=O)(=O)N5CCC(F)(F)C5)cc43)c3ccccc3)cc2)CC1 [Example 154]" quantity_kind="remaining activity at 1 µM" result_value=2.62%
compound="CN(C)Cc1ccc(N/C(=C2\\C(=O)Nc3cc(-c4cnc(C(=O)O)nc4)ccc32)c2ccccc2)cc1 [Example 42]" quantity_kind="remaining activity at 1 µM" result_value=139%
compound="CC(C)Nc1ncc(-c2ccc3c(c2)NC(=O)/C3=C(\\Nc2cccc(CN3CCCC3)c2)c2ccccc2)cn1 [Example 91]" quantity_kind="remaining activity at 1 µM" result_value=9.48%
compound="CNc1ccc(N/C(=C2\\C(=O)Nc3cc(-c4cnc(NC(C)C)nc4)ccc32)c2ccccc2)cc1 [Example 85]" quantity_kind="remaining activity at 1 µM" result_value=50.3%
compound="COc1cc(N/C(=C2\\C(=O)Nc3cc(-c4ccc(NC(C)C)nc4)ccc32)c2ccccc2)ccc1C(=O)N1CCC(N(C)C)CC1 [Example 107]" quantity_kind="remaining activity at 1 µM" result_value=1.66%
compound="CNc1ccc(-c2ccc3c(c2)NC(=O)/C3=C(\\Nc2ccc(CN(C)C)cc2)c2ccccc2)cn1 [Example 8]" quantity_kind="remaining activity at 1 µM" result_value=15.6%
compound="CC(C)Nc1ccc(-c2ccc3c(c2)NC(=O)/C3=C(\\Nc2ccc(C(=O)N3CCN[C@H](C)C3)cc2)c2ccccc2)cn1 [Example 115]" quantity_kind="remaining activity at 1 µM" result_value=3.25%
compound="O=C(C#Cc1ccc2c(c1)NC(=O)/C2=C(\\Nc1ccc(CN2CCCC2)cc1)c1ccccc1)Nc1ccccc1F [Example 170]" quantity_kind="remaining activity at 1 µM" result_value=1.39%
compound="CC(C)Nc1ccc(-c2ccc3c(c2)NC(=O)/C3=C(\\Nc2ccc(C(=O)N3CCCN(C4CC4)CC3)cc2)c2ccccc2)cn1 [Example 119]" quantity_kind="remaining activity at 1 µM" result_value=3.54%
compound="CCCNc1ccc(-c2ccc3c(c2)NC(=O)/C3=C(\\Nc2ccc(CN(C)C)cc2)c2ccccc2)cn1 [Example 57]" quantity_kind="remaining activity at 1 µM" result_value=5.74%
compound="COc1cc(N/C(=C2\\C(=O)Nc3cc(-c4ccc(NC(C)C)nc4)ccc32)c2ccccc2)ccc1C(=O)N1CCN(C(C)C)CC1 [Example 106]" quantity_kind="remaining activity at 1 µM" result_value=2.94%

Attribution: patent US8853420B2
